# SYSTEM: Cannabinoid receptor 1 (Rattus norvegicus, UniProt P20272)
# Sequence (P20272 whole entry): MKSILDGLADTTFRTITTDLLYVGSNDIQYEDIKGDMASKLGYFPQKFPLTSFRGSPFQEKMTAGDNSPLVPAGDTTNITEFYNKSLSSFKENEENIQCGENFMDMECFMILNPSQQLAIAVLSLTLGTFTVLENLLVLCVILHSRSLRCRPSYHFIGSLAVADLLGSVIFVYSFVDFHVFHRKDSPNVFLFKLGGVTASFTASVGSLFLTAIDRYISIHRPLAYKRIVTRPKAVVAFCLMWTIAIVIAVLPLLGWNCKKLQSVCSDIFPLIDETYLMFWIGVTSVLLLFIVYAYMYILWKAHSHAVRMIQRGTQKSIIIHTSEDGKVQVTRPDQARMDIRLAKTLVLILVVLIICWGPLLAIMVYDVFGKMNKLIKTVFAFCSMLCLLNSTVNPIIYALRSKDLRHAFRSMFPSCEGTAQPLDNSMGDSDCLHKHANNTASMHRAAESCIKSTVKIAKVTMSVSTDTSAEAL
# ASSAY INFO: Displacement of [3H]CP-55940 from rat CB1 receptor expressed in rat brain membrane by competitive binding assay
# Format: cell membranes
EXPERIMENTAL ENDPOINT: Ki

>>> df
                            compound_smiles  value_reported
0  COc1ccc2c(c1)-c1c(O)cc(C34CC5CC(CC(C5)C3)C4)cc1OC2(C)C          507 nM
1  CC1(C)Oc2cc(C34CC5CC(CC(C5)C3)C4)cc(O)c2[C@@H]2C[C@H](CCO)CC[C@H]21          8.6 nM
2  CC1(C)Oc2cc(C34CC5CC(CC(C5)C3)C4)cc(O)c2[C@@H]2C[C@@H](CCO)CC[C@H]21         40.9 nM

Lookup result for CC1(C)Oc2cc(C34CC5CC(CC(C5)C3)C4)cc(O)c2-c2cc(O)ccc21 ; measured Ki: 88.6 nM

Lookup result for CC1(C)Oc2cc(C34CC5CC(CC(C5)C3)C4)cc(O)c2[C@@H]2CC(CO)=CC[C@H]21 ; measured Ki: 7.2 nM

Lookup result for CC1(C)Oc2cc(C34CC5CC(CC(C5)C3)C4)cc(O)c2[C@@H]2C[C@H](O)CC[C@H]21 ; measured Ki: 23.9 nM

Lookup result for Cc1ccc2c(c1)-c1c(O)cc(C34CC5CC(CC(C5)C3)C4)cc1OC2(C)C ; measured Ki: 62 nM

Lookup result for CC1(C)Oc2cc(C34CC5CC(CC(C5)C3)C4)cc(O)c2[C@@H]2C[C@@H](CC=O)CC[C@H]21 ; measured Ki: 17.5 nM

Lookup result for CC1(C)Oc2cc(C34CC5CC(CC(C5)C3)C4)cc(O)c2[C@@H]2C[C@H](CO)CC[C@H]21 ; measured Ki: 4.9 nM

* * *

Measured pKi (UniProtKB P34972)
Sequence (P34972 whole entry): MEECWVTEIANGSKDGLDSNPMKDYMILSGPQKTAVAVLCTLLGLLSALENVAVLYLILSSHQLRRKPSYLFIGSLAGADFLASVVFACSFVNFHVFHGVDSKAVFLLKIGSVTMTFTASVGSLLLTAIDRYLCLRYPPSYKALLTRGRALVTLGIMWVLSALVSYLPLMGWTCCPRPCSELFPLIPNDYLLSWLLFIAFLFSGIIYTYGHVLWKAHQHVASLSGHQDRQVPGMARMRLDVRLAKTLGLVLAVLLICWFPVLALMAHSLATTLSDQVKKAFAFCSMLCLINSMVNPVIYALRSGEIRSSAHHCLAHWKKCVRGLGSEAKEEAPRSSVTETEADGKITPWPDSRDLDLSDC
Give only the number. pKi is defined as minus log10 of concentration in molar units.

>>> df
                            compound_smiles  experimental_endpoint  value_reported
0  CC1(C)Oc2cc(C34CC5CC(CC(C5)C3)C4)cc(O)c2[C@@H]2C[C@@H](O)CC[C@H]21                    pKi            6.17
1  CC1(C)Oc2cc(C34CC5CC(CC(C5)C3)C4)cc(O)c2[C@@H]2C[C@H](O)CC[C@H]21                    pKi            7.39
2  CC1(C)Oc2cc(C34CC5CC(CC(C5)C3)C4)cc(O)c2[C@@H]2C[C@H](CCO)CC[C@H]21                    pKi            7.48

Lookup result for CC1(C)Oc2cc(C34CC5CC(CC(C5)C3)C4)cc(O)c2[C@@H]2C[C@@H](C=O)CC[C@H]21 ; measured pKi: 8.05

Lookup result for CC1(C)Oc2cc(C34CC5CC(CC(C5)C3)C4)cc(O)c2[C@@H]2C[C@@H](CCO)CC[C@H]21 ; measured pKi: 6.44

Lookup result for CC1(C)Oc2cc(C34CC5CC(CC(C5)C3)C4)cc(O)c2[C@@H]2C[C@H](CI)CC[C@H]21 ; measured pKi: 6.58

Lookup result for CC1(C)Oc2cc(C34CC5CC(CC(C5)C3)C4)cc(O)c2[C@@H]2C[C@H](C=O)CC[C@H]21 ; measured pKi: 8.26

Lookup result for Cc1ccc2c(c1)-c1c(O)cc(C34CC5CC(CC(C5)C3)C4)cc1OC2(C)C ; measured pKi: 7.20

Lookup result for CC1(C)Oc2cc(C34CC5CC(CC(C5)C3)C4)cc(O)c2[C@@H]2CC(=O)CC[C@H]21 ; measured pKi: 6.47

Lookup result for COc1ccc2c(c1)-c1c(O)cc(C34CC5CC(CC(C5)C3)C4)cc1OC2(C)C ; measured pKi: 6.47

Lookup result for CC(C)(C)C(=O)OCC1=CC[C@@H]2[C@@H](C1)c1c(O)cc(C34CC5CC(CC(C5)C3)C4)cc1OC2(C)C ; measured pKi: 7.31

Lookup result for CO/C=C\[C@@H]1CC[C@@H]2[C@@H](C1)c1c(O)cc(C34CC5CC(CC(C5)C3)C4)cc1OC2(C)C ; measured pKi: 7.17

* * *

# SYSTEM: UniProt:P34972
EXPERIMENTAL ENDPOINT: Ki
Give the number first and the unit second.

In [3]: df
Out[3]:
                            compound_smiles          system  experimental_endpoint  value_reported
0  CC1(C)Oc2cc(C34CC5CC(CC(C5)C3)C4)cc(O)c2[C@@H]2CC(CO)=CC[C@H]21  UniProt:P34972                     Ki           14 nM

The value of Ki recorded for CC1(C)Oc2cc(C34CC5CC(CC(C5)C3)C4)cc(O)c2[C@@H]2C[C@@H](CC=O)CC[C@H]21 when tested on UniProt:P34972 reads 7.8 nM

The value of Ki recorded for CC1(C)Oc2cc(C34CC5CC(CC(C5)C3)C4)cc(O)c2-c2cc(O)ccc21 when tested on UniProt:P34972 reads 551 nM

The value of Ki recorded for CC1(C)Oc2cc(C34CC5CC(CC(C5)C3)C4)cc(O)c2[C@@H]2C[C@@H](CO)CC[C@H]21 when tested on UniProt:P34972 reads 121 nM

The value of Ki recorded for CC1(C)Oc2cc(C34CC5CC(CC(C5)C3)C4)cc(O)c2[C@@H]2C[C@H](CC=O)CC[C@H]21 when tested on UniProt:P34972 reads 11.2 nM

The value of Ki recorded for CC1(C)Oc2cc(C34CC5CC(CC(C5)C3)C4)cc(O)c2[C@@H]2C[C@H](CC#N)CC[C@H]21 when tested on UniProt:P34972 reads 100 nM

The value of Ki recorded for CC1(C)Oc2cc(C34CC5CC(CC(C5)C3)C4)cc(O)c2[C@@H]2C[C@H](CO)CC[C@H]21 when tested on UniProt:P34972 reads 11.3 nM

The value of Ki recorded for CC1(C)Oc2cc(C34CC5CC(CC(C5)C3)C4)cc(O)c2-c2cc(CO)ccc21 when tested on UniProt:P34972 reads 46.7 nM

* * *

# SYSTEM: Cannabinoid receptor 2 (Mus musculus, UniProt P47936)
# Sequence (P47936 whole entry): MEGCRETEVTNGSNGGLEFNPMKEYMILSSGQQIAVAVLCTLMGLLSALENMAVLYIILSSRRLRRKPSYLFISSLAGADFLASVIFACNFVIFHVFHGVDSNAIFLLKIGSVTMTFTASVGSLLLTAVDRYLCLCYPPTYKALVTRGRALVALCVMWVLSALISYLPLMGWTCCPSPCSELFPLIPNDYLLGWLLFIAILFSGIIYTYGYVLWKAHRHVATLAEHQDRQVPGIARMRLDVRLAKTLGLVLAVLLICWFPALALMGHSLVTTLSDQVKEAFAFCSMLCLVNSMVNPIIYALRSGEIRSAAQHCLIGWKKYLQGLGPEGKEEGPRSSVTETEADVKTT
EXPERIMENTAL ENDPOINT: log10(Ki) (log10 of the value in µM)
Values are log10 of Ki in µM.

Guide cases for log10(Ki), answers given:
>>> print(df.to_string())
                            compound_smiles  experimental_endpoint  value_reported
0  CC1(C)Oc2cc(C34CC5CC(CC(C5)C3)C4)cc(O)c2[C@@H]2C[C@H](CI)CC[C@H]21              log10(Ki)           -0.46
1  CC(C)(C)C(=O)OCC1=CC[C@@H]2[C@@H](C1)c1c(O)cc(C34CC5CC(CC(C5)C3)C4)cc1OC2(C)C              log10(Ki)           -0.90
2  COc1ccc2c(c1)-c1c(O)cc(C34CC5CC(CC(C5)C3)C4)cc1OC2(C)C              log10(Ki)           -0.02
3  CC1(C)Oc2cc(C34CC5CC(CC(C5)C3)C4)cc(O)c2[C@@H]2C[C@H](CCO)CC[C@H]21              log10(Ki)           -1.42
4  CC1(C)Oc2cc(C34CC5CC(CC(C5)C3)C4)cc(O)c2[C@@H]2C[C@@H](O)CC[C@H]21              log10(Ki)           -0.59
5  CC1(C)Oc2cc(C34CC5CC(CC(C5)C3)C4)cc(O)c2[C@@H]2C[C@H](CC#N)CC[C@H]21              log10(Ki)           -1.06

Lookup result for CC1(C)Oc2cc(C34CC5CC(CC(C5)C3)C4)cc(O)c2[C@@H]2C[C@@H](C=O)CC[C@H]21 ; measured log10(Ki): -1.70

Lookup result for CC1(C)Oc2cc(C34CC5CC(CC(C5)C3)C4)cc(O)c2[C@@H]2C[C@@H](CCO)CC[C@H]21 ; measured log10(Ki): -1.68

* * *

# ASSAY INFO: Selectivity ratio of Ki for human CB2 receptor to Ki for rat CB1 receptor
Criterion: Ratio Ki meeting or surpassing 1. Met: Met. Not met: Not met.

# count of solved cases: 3
>>> print(df.to_string())
                            compound_smiles  class_label
0  CC1(C)Oc2cc(C34CC5CC(CC(C5)C3)C4)cc(O)c2-c2cc(O)ccc21          Met
1  CC1(C)Oc2cc(C34CC5CC(CC(C5)C3)C4)cc(O)c2[C@@H]2C[C@H](CC#N)CC[C@H]21          Met
2  CC1(C)Oc2cc(C34CC5CC(CC(C5)C3)C4)cc(O)c2[C@@H]2C[C@@H](CC=O)CC[C@H]21      Not met

With those in mind, consider the next compound.
Dear colleague, could you confirm whether CC1(C)Oc2cc(C34CC5CC(CC(C5)C3)C4)cc(O)c2[C@@H]2C[C@@H](C=O)CC[C@H]21 has Ratio Ki at or above 1?
Not met
